molecular target: NPR-B (Mus musculus, UniProt Q6VVW5); construct: Murine NIH3T3 cells express endogenously the CNP signaling receptor, NPR-B; endogenous in cells; host or cells: NIH3T3; assay: stimulation of cGMP production in NIH3T3 cells; format: cell-based, murine; details: NIH3T3 cells exposed to 1 uM peptide; normalized to cell number and cGMP production in the presence of 1 uM wtCNP22
Sequence (Q6VVW5 17-1047): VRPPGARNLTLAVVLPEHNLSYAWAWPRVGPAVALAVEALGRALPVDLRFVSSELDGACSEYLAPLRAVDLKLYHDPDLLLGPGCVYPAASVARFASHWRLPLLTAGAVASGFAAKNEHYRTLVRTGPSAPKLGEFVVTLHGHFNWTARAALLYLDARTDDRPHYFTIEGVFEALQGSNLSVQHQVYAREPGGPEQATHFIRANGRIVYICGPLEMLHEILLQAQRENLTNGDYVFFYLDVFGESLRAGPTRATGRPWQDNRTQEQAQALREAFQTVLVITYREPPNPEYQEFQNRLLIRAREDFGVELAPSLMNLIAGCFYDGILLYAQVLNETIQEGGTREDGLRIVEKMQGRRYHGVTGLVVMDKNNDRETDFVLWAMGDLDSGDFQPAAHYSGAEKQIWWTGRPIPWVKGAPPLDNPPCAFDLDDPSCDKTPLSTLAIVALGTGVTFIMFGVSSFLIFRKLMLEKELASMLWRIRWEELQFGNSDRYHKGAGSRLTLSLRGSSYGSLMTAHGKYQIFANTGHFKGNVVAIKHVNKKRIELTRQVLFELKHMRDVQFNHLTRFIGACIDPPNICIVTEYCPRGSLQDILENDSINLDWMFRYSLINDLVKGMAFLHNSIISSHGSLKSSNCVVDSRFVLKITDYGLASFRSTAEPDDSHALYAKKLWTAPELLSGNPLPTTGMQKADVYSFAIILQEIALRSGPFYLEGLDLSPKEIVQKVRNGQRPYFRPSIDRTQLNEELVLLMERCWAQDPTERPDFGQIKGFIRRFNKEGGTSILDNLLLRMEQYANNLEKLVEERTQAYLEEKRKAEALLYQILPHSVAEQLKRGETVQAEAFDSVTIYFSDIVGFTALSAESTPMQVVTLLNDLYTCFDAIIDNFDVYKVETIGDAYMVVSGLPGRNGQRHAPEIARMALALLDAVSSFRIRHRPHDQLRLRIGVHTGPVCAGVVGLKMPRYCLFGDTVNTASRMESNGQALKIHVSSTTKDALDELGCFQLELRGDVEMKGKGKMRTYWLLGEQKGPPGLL
OUTCOME_MEASURE: cGMP Response rel. to 1 uM CNP22, 1 uM
Answer with a number only.

The observed cGMP Response rel. to 1 uM CNP22, 1 uM for CC[C@H](C)[C@@H]1NC(=O)[C@H](CCCNC(=N)N)NC(=O)[C@H](CC(=O)O)NC(=O)[C@H](CC(C)C)NC(=O)[C@H](CCCCN)NC(=O)[C@H](CC(C)C)N(C)C(=O)CNC(=O)[C@H](Cc2ccccc2)NC(=O)[C@@H](NC(=O)CNC(=O)[C@H](CCCCN)NC(=O)[C@H](CO)NC(=O)[C@H](CC(C)C)NC(=O)CN)CSSC[C@@H](C(=O)O)NC(=O)CNC(=O)[C@H](CC(C)C)N(C)C(=O)CNC(=O)[C@H](CO)NC(=O)[C@H](CCSC)NC(=O)[C@H](CO)NC(=O)CNC1=O when tested with NPR-B (Mus musculus, UniProt Q6VVW5) stands at 1
